# Tested on: mice bearing PSMA-expressing LNCAP cancer xenografts
# assay_method_text: Biodistribution of 68Ga-labeled compounds
# Format: in vivo
# test_parameters: 3 h post-injection
observation_type: Pancreas uptake (% ID/g)

[[record]]
molecule = "O=C([O-])CN1CCN(CC(=O)[O-])CCN(CC(=O)NCCCC[C@H](NC(=O)CNC(=O)CCCc2ccc(F)cc2)C(=O)NC[C@H]2CC[C@H](C(=O)N[C@@H](Cc3ccc4ccccc4c3)C(=O)NCCCC[C@H](NC(=O)N[C@@H](CCC(=O)O)C(=O)O)C(=O)O)CC2)CCN(CC(=O)[O-])CC1.[68Ga+3] [^68Ga-HTK03085]"
observation_type = "Pancreas uptake"
measurement = 0.35

[[record]]
molecule = "O=C([O-])CN1CCN(CC(=O)[O-])CCN(CC(=O)NCCCC[C@H](NC(=O)CNC(=O)CCCc2ccccc2)C(=O)NC[C@H]2CC[C@H](C(=O)N[C@@H](Cc3ccc4ccccc4c3)C(=O)NCCCC[C@H](NC(=O)N[C@@H](CCC(=O)O)C(=O)O)C(=O)O)CC2)CCN(CC(=O)[O-])CC1.[68Ga+3] [^68Ga-HTK03056]"
observation_type = "Pancreas uptake"
measurement = 0.41

[[record]]
molecule = "O=C([O-])CN1CCN(CC(=O)[O-])CCN(CC(=O)NCCCC[C@H](NC(=O)CNC(=O)CCCc2ccc(Br)cc2)C(=O)NC[C@H]2CC[C@H](C(=O)N[C@@H](Cc3ccc4ccccc4c3)C(=O)NCCCC[C@H](NC(=O)N[C@@H](CCC(=O)O)C(=O)O)C(=O)O)CC2)CCN(CC(=O)[O-])CC1.[68Ga+3] [^68Ga-HTK03058]"
observation_type = "Pancreas uptake"
measurement = 1.96

[[record]]
molecule = "COc1ccc(CCCC(=O)NCC(=O)N[C@@H](CCCCNC(=O)CN2CCN(CC(=O)[O-])CCN(CC(=O)[O-])CCN(CC(=O)[O-])CC2)C(=O)NC[C@H]2CC[C@H](C(=O)N[C@@H](Cc3ccc4ccccc4c3)C(=O)NCCCC[C@H](NC(=O)N[C@@H](CCC(=O)O)C(=O)O)C(=O)O)CC2)cc1.[68Ga+3] [^68Ga-HTK03086]"
observation_type = "Pancreas uptake"
measurement = 0.70


###

# System: mice bearing PSMA-expressing LNCAP cancer xenografts
# assay_method_text: Biodistribution of 68Ga-labeled compounds
# Assay type: in vivo
# test_parameters: 1 h post-injection
observation_type: Muscle uptake (% ID/g)

[[record]]
molecule = "Nc1ccc(CCCC(=O)NCC(=O)N[C@@H](CCCCNC(=O)CN2CCN(CC(=O)[O-])CCN(CC(=O)[O-])CCN(CC(=O)[O-])CC2)C(=O)NC[C@H]2CC[C@H](C(=O)N[C@@H](Cc3ccc4ccccc4c3)C(=O)NCCCC[C@H](NC(=O)N[C@@H](CCC(=O)O)C(=O)O)C(=O)O)CC2)cc1.[68Ga+3] [^68Ga-HTK03087]"
measurement_units = "% ID/g"
measurement = 0.31

[[record]]
molecule = "O=C([O-])CN1CCN(CC(=O)[O-])CCN(CC(=O)NCCCC[C@H](NC(=O)CNC(=O)CCc2ccccc2)C(=O)NC[C@H]2CC[C@H](C(=O)N[C@@H](Cc3ccc4ccccc4c3)C(=O)NCCCC[C@H](NC(=O)N[C@@H](CCC(=O)O)C(=O)O)C(=O)O)CC2)CCN(CC(=O)[O-])CC1.[68Ga+3] [^68Ga-HTK03082]"
measurement_units = "% ID/g"
measurement = 0.33

[[record]]
molecule = "O=C([O-])CN1CCN(CC(=O)[O-])CCN(CC(=O)NCCCC[C@H](NC(=O)CNC(=O)CCCc2ccc(Cl)cc2)C(=O)NC[C@H]2CC[C@H](C(=O)N[C@@H](Cc3ccc4ccccc4c3)C(=O)NCCCC[C@H](NC(=O)N[C@@H](CCC(=O)O)C(=O)O)C(=O)O)CC2)CCN(CC(=O)[O-])CC1.[68Ga+3] [^68Ga-HTK03055]"
measurement_units = "% ID/g"
measurement = 1.60

[[record]]
molecule = "O=C([O-])CN1CCN(CC(=O)[O-])CCN(CC(=O)NCCCC[C@H](NC(=O)CNC(=O)CCCc2ccc(F)cc2)C(=O)NC[C@H]2CC[C@H](C(=O)N[C@@H](Cc3ccc4ccccc4c3)C(=O)NCCCC[C@H](NC(=O)N[C@@H](CCC(=O)O)C(=O)O)C(=O)O)CC2)CCN(CC(=O)[O-])CC1.[68Ga+3] [^68Ga-HTK03085]"
measurement_units = "% ID/g"
measurement = 0.58

[[record]]
molecule = "CCCCCCC(NC(=O)C1CCC(CNC(=O)CN2CCN(CC(=O)[O-])CCN(CC(=O)[O-])CCN(CC(=O)[O-])CC2)CC1)C(=O)NCCCCC(NC(=O)NC(CCC(=O)O)C(=O)O)C(=O)O.[68Ga+3] (stereo not shown) [^68Ga-HTK03026]"
measurement_units = "% ID/g"
measurement = 0.28

[[record]]
molecule = "O=C([O-])CN1CCN(CC(=O)[O-])CCN(CC(=O)NCCCC[C@H](NC(=O)CNC(=O)CCCc2ccc(Br)cc2)C(=O)NC[C@H]2CC[C@H](C(=O)N[C@@H](Cc3ccc4ccccc4c3)C(=O)NCCCC[C@H](NC(=O)N[C@@H](CCC(=O)O)C(=O)O)C(=O)O)CC2)CCN(CC(=O)[O-])CC1.[68Ga+3] [^68Ga-HTK03058]"
measurement_units = "% ID/g"
measurement = 1.37

[[record]]
molecule = "COc1ccc(CCCC(=O)NCC(=O)N[C@@H](CCCCNC(=O)CN2CCN(CC(=O)[O-])CCN(CC(=O)[O-])CCN(CC(=O)[O-])CC2)C(=O)NC[C@H]2CC[C@H](C(=O)N[C@@H](Cc3ccc4ccccc4c3)C(=O)NCCCC[C@H](NC(=O)N[C@@H](CCC(=O)O)C(=O)O)C(=O)O)CC2)cc1.[68Ga+3] [^68Ga-HTK03086]"
measurement_units = "% ID/g"
measurement = 0.94

